- ASSAY_INFO: in vitro
- EXPERIMENTAL_CONDITIONS: human
Property: CC50; scope: individual compounds

Here is how some compounds turned out for CC50.
>>> test_value("Nc1ncn(C[C@@H](CO)OCP(=O)(O)O)c(=O)n1")
"> 100 mg/L"
>>> test_value("Nc1ccn(C[C@@H](CO)OCP(=O)(O)O)c(=O)n1 [HPMPC, reference compound]")
"> 79 mg/L"

Reported CC50 ( "NC(=NC(=O)NC[C@@H](CO)OCP(=O)(O)O)NC=O.[Na]" ) = > 100 mg/L

====

- Test system: primate polyomavirus (SV40)
- ASSAY_INFO: microbe, parasite or virus in culture
- Assay type: cell-based, simian polyomavirus SV40
REPORTED_METRIC: selectivity index SV40 PML-1 strain EK
Please reply with the number alone, leaving off any unit.

Here is how some compounds turned out for selectivity index SV40 PML-1 strain EK.
>>> test_value("CCCCCCCCCCCCCCCCOCCOP1(=O)CO[C@@H](Cn2cnc(N)nc2=O)CO1 (stereo partly shown) [Compound 12]")
57.6
>>> test_value("Nc1ncn(C[C@H]2COP(=O)(O)CO2)c(=O)n1 [Compound 11]")
8

// switching to the query compound
Field selectivity index SV40 PML-1 strain EK (primate polyomavirus (SV40)), entry NC(N)=NC(=O)NC[C@@H](CO)OCP(=O)(O)O [Compound 10] : 1

Cited source: patent US8153787B2
